OBSERVABLE: melting point

Reference set (2 entries):
| COMPOUND | melting point |
| --- | --- |
| CCOc1ccc2c(c1)CCC(Cc1c[nH]cn1)C2=O (stereo not drawn) | 143.5 to 144.5 °C |
| CC1=C(Cc2c[nH]cn2)CCc2cc(OCC(C)C)ccc21 | 96 to 97 °C |

Inquiry: Give its melting point value. Item: `CCC1=C(Cc2c[nH]cn2)CCc2cc(OC)ccc21`
Reply text: 138 to 141.5 °C

Inquiry: Give its melting point value. Item: `CCOc1ccc2c(c1)C(=O)C(=Cc1c[nH]cn1)CC2`
Reply text: 139.5 to 141 °C

Inquiry: Give its melting point value. Item: `CCOc1ccc2c(c1)CCC(Cc1c[nH]cn1)=C2C`
Reply text: 126 to 127 °C

Inquiry: Give its melting point value. Item: `COc1cccc2c1CCC(Cc1c[nH]cn1)=C2.Cl`
Reply text: 192.5 to 194.5 °C

Inquiry: Give its melting point value. Item: `CCCOc1ccc2c(c1)CCC(Cc1c[nH]cn1)=C2C`
Reply text: 91.5 to 92 °C

Inquiry: Give its melting point value. Item: `COc1ccc2c(c1)CCC(Cc1c[nH]cn1)=C2Cc1ccccc1`
Reply text: 122.5 to 123 °C

Inquiry: Give its melting point value. Item: `CCOc1ccc2c(c1)CCC(=Cc1c[nH]cn1)C2=O`
Reply text: 133.5 to 134.5 °C

Inquiry: Give its melting point value. Item: `CCOc1ccc2c(c1)C(C)=C(Cc1c[nH]cn1)CC2.Cl`
Reply text: 170.5 to 171.5 °C

Inquiry: Give its melting point value. Item: `COc1cccc2c1CCC(Cc1c[nH]cn1)=C2c1ccccc1`
Reply text: 200 to 202 °C

Inquiry: Give its melting point value. Item: `CCCC1=C(Cc2c[nH]cn2)CCc2cc(OC)ccc21`
Reply text: 123.5 to 124.5 °C

Inquiry: Give its melting point value. Item: `COc1cccc2c1CCC(=Cc1c[nH]cn1)C2=O`
Reply text: 194 to 195 °C

Inquiry: Give its melting point value. Item: `CCC1=C(Cc2c[nH]cn2)CCc2c(OC)cccc21.Cl`
Reply text: 164 to 166 °C

Inquiry: Give its melting point value. Item: `CCOc1cccc2c1CCC(Cc1c[nH]cn1)=C2C`
Reply text: 133.5 to 136 °C
